# residual activity per entry
target: Serine/threonine-protein kinase Nek2 (Homo sapiens) (UniProt P51955); assay: Inhibition of human NEK2 at 1 uM relative to control; values are per cent of control
Sequence (P51955 whole entry): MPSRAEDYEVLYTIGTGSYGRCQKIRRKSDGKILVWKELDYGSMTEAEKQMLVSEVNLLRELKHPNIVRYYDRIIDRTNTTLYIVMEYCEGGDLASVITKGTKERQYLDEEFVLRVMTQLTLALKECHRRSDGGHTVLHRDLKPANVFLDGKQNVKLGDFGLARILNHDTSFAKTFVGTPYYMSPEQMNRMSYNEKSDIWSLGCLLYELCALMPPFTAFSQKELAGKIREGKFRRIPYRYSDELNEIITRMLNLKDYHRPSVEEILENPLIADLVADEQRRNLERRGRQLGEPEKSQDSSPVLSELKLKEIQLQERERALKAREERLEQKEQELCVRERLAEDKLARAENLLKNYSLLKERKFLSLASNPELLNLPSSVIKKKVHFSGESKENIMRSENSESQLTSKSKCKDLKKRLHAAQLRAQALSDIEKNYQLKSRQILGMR
Please state the figure in %; there is no need to write the unit.

The following compounds have reported results that may help.
{"input-smiles": "CN(C)c1cc2cc(n1)CCCn1cc(c3ccccc31)C1=C(C(=O)NC1=O)c1cn(c3ccccc13)CCC2", "property-measured": "residual activity", "measured-number": 102}
{"input-smiles": "CN(C)c1nc2ccc1CCCn1cc(c3ccccc31)C1=C(C(=O)NC1=O)c1cn(c3ccccc13)CC2", "property-measured": "residual activity", "measured-number": 104}
{"input-smiles": "O=C1NC(=O)C2=C1c1cn(c3ccccc13)CCCc1ccc(c(N3CCCC3)n1)CCCn1cc2c2ccccc21", "property-measured": "residual activity", "measured-number": 99}

Sample "O=C1NC(=O)C2=C1c1cn(c3ccccc13)CCCc1cc(nc(N3CCCC3)c1)CCCn1cc2c2ccccc21" — what was its residual activity?
105

###

target: Calcium/calmodulin-dependent protein kinase type IV (Homo sapiens); experiment: Residual activity of human CaMK4 at 1 uM relative to control
# residual activity per entry
Please state the figure in %; there is no need to write the unit.

The following molecules have reported results that may help.
{"input-smiles": "CN(C)c1nc2ccc1CCCn1cc(c3ccccc31)C1=C(C(=O)NC1=O)c1cn(c3ccccc13)CC2", "residual activity, %": 92}
{"input-smiles": "O=C1NC(=O)C2=C1c1cn(c3ccccc13)CCCc1cc(nc(N3CCCC3)c1)CCCn1cc2c2ccccc21", "residual activity, %": 112}
{"input-smiles": "CN(C)c1cc2cc(n1)CCCn1cc(c3ccccc31)C1=C(C(=O)NC1=O)c1cn(c3ccccc13)CCC2", "residual activity, %": 113}

Sample "O=C1NC(=O)C2=C1c1cn(c3ccccc13)CCCc1ccc(c(N3CCCC3)n1)CCCn1cc2c2ccccc21" — what was its residual activity?
99

###

# residual activity per entry
biological target: Cyclin-dependent kinase 5/CDK5 activator 1 (Homo sapiens) (UniProt Q00535+Q15078); assay: Inhibition of human CDK5/p35 at 1 uM relative to control; values are per cent of control
Sequence (Q00535 whole entry): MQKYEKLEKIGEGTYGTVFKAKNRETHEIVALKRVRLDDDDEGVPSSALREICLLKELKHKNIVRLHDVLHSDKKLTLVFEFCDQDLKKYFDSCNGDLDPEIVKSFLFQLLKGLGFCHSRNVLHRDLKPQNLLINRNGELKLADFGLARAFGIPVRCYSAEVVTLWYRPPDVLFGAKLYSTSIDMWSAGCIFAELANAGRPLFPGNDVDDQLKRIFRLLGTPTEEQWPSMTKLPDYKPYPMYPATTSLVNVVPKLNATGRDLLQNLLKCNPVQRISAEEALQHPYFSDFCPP
Sequence (Q15078 99-307 partner limits assumed): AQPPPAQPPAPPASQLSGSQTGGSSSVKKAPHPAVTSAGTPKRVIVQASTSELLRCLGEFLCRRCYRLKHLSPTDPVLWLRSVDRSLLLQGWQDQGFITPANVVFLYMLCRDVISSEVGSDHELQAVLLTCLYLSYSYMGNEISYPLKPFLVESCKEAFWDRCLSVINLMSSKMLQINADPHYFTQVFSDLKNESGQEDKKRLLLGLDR
Please state the figure in %; there is no need to write the unit.

{"input-smiles": "CN(C)c1cc2cc(n1)CCCn1cc(c3ccccc31)C1=C(C(=O)NC1=O)c1cn(c3ccccc13)CCC2", "property-measured": "residual activity", "measured-number": 105}
{"input-smiles": "O=C1NC(=O)C2=C1c1cn(c3ccccc13)CCCc1ccc(c(N3CCCC3)n1)CCCn1cc2c2ccccc21", "property-measured": "residual activity", "measured-number": 104}

Sample "O=C1NC(=O)C2=C1c1cn(c3ccccc13)CCCc1cc(nc(N3CCCC3)c1)CCCn1cc2c2ccccc21" — what was its residual activity?
99

Sample "CN(C)c1nc2ccc1CCCn1cc(c3ccccc31)C1=C(C(=O)NC1=O)c1cn(c3ccccc13)CC2" — what was its residual activity?
99

###

target: Mitogen-activated protein kinase 10 (Homo sapiens) (UniProt P53779); experiment: Inhibition of human JNK3 at 1 uM relative to control; values are per cent of control
Sequence (P53779 whole entry): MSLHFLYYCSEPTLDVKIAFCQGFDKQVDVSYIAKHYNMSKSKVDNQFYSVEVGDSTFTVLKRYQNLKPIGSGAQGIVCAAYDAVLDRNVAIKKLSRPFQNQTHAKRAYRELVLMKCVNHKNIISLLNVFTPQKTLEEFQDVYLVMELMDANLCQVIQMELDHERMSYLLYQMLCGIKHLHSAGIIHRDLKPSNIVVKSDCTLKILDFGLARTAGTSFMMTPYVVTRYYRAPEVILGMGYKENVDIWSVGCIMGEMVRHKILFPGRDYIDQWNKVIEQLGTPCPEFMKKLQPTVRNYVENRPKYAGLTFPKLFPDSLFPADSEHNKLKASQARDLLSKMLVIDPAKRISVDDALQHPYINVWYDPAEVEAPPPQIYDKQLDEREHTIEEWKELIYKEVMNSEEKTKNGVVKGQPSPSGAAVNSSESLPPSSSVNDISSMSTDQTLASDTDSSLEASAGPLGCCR
property-measured: residual activity (%)
Please state the figure in %; there is no need to write the unit.

# returns recorded residual activity (system: Mitogen-activated protein kinase 10 (Homo sapiens) (UniProt P53779)) for "O=C1NC(=O)C2=C1c1cn(c3ccccc13)CCCc1cc(nc(N3CCCC3)c1)CCCn1cc2c2ccccc21"
103

# returns recorded residual activity (system: Mitogen-activated protein kinase 10 (Homo sapiens) (UniProt P53779)) for "CN(C)c1cc2cc(n1)CCCn1cc(c3ccccc31)C1=C(C(=O)NC1=O)c1cn(c3ccccc13)CCC2"
107

# returns recorded residual activity (system: Mitogen-activated protein kinase 10 (Homo sapiens) (UniProt P53779)) for "O=C1NC(=O)C2=C1c1cn(c3ccccc13)CCCc1ccc(c(N3CCCC3)n1)CCCn1cc2c2ccccc21"
102

# returns recorded residual activity (system: Mitogen-activated protein kinase 10 (Homo sapiens) (UniProt P53779)) for "CN(C)c1nc2ccc1CCCn1cc(c3ccccc31)C1=C(C(=O)NC1=O)c1cn(c3ccccc13)CC2"
96

###

target: ALK tyrosine kinase receptor (Homo sapiens) (UniProt Q9UM73); assay: Inhibition of ALK at 1 uM relative to control; values are per cent of control
Sequence (Q9UM73 19-1620 limits assumed): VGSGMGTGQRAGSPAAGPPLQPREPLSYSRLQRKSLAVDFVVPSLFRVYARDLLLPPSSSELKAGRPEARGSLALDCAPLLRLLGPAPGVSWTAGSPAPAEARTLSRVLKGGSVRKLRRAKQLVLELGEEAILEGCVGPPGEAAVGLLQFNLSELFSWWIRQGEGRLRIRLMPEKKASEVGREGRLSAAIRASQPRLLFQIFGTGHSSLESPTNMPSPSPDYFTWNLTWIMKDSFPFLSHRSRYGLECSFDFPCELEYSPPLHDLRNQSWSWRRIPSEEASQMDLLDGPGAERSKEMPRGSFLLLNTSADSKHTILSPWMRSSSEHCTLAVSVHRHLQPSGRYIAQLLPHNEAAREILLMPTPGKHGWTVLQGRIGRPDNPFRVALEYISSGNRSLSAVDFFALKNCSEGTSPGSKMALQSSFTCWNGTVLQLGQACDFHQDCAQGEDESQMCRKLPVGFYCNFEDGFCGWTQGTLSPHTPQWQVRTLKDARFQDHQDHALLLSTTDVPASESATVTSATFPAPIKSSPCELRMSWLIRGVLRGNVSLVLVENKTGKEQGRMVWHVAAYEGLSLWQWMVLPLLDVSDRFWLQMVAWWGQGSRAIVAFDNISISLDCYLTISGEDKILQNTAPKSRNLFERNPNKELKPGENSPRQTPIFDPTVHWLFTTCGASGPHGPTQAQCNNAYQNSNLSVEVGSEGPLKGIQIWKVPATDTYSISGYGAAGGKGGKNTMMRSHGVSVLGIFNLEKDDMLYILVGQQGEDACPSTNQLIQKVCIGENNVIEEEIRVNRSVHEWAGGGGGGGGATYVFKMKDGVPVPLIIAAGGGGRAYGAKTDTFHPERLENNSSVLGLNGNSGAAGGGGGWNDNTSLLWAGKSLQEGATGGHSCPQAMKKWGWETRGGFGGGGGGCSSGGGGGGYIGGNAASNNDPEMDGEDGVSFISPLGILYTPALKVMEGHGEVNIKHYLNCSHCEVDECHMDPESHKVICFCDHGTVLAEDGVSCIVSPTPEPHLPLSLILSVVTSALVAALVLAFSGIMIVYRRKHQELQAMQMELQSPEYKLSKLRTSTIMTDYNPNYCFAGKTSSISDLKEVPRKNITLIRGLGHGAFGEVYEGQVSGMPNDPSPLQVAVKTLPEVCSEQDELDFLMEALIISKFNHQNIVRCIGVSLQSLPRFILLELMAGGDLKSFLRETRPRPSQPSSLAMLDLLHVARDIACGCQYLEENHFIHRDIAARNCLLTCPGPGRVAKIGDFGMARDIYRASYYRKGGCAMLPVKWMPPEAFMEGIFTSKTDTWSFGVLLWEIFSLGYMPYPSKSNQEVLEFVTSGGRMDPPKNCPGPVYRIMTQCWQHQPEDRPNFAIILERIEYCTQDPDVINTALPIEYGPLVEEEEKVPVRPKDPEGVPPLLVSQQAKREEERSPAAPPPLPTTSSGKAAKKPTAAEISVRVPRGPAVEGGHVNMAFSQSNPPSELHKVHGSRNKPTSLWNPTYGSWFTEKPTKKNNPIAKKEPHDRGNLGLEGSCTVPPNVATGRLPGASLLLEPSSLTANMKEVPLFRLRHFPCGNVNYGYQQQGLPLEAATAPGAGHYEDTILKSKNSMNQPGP
property-measured: residual activity (%)
Please state the figure in %; there is no need to write the unit.

The following molecules have reported results that may help.
{"input-smiles": "O=C1NC(=O)C2=C1c1cn(c3ccccc13)CCCc1cc(nc(N3CCCC3)c1)CCCn1cc2c2ccccc21", "measured-number": 58}
{"input-smiles": "CN(C)c1cc2cc(n1)CCCn1cc(c3ccccc31)C1=C(C(=O)NC1=O)c1cn(c3ccccc13)CCC2", "measured-number": 55}
{"input-smiles": "CN(C)c1nc2ccc1CCCn1cc(c3ccccc31)C1=C(C(=O)NC1=O)c1cn(c3ccccc13)CC2", "measured-number": 103}

Here is the next item to consider.
Sample "O=C1NC(=O)C2=C1c1cn(c3ccccc13)CCCc1ccc(c(N3CCCC3)n1)CCCn1cc2c2ccccc21" — what was its residual activity?
74

###

biological target: Inhibitor of nuclear factor kappa-B kinase subunit alpha (Homo sapiens); test: Residual activity of human IKKalpha at 1 uM relative to control
# residual activity per entry
Please state the figure in %; there is no need to write the unit.

The following molecules have reported results that may help.
{"input-smiles": "CN(C)c1nc2ccc1CCCn1cc(c3ccccc31)C1=C(C(=O)NC1=O)c1cn(c3ccccc13)CC2", "residual activity (%)": 92}
{"input-smiles": "CN(C)c1cc2cc(n1)CCCn1cc(c3ccccc31)C1=C(C(=O)NC1=O)c1cn(c3ccccc13)CCC2", "residual activity (%)": 133}
{"input-smiles": "O=C1NC(=O)C2=C1c1cn(c3ccccc13)CCCc1ccc(c(N3CCCC3)n1)CCCn1cc2c2ccccc21", "residual activity (%)": 121}

Here is the next item to consider.
Sample "O=C1NC(=O)C2=C1c1cn(c3ccccc13)CCCc1cc(nc(N3CCCC3)c1)CCCn1cc2c2ccccc21" — what was its residual activity?
132

###

molecular target: Mitogen-activated protein kinase 11 (Homo sapiens) (UniProt Q15759); experiment: Inhibition of human SAPK2b at 1 uM relative to control; values are per cent of control
Sequence (Q15759 whole entry): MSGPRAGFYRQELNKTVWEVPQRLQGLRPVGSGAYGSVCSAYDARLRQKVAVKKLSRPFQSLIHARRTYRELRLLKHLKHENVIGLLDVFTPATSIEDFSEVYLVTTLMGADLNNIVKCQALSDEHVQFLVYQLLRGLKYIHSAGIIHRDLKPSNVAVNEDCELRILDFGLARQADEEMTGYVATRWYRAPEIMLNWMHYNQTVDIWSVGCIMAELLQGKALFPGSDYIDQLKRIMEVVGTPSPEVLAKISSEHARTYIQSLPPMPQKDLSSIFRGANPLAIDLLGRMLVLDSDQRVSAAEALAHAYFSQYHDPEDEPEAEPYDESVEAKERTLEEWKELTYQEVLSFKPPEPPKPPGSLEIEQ
property-measured: residual activity (%)
Please state the figure in %; there is no need to write the unit.

{"input-smiles": "CN(C)c1cc2cc(n1)CCCn1cc(c3ccccc31)C1=C(C(=O)NC1=O)c1cn(c3ccccc13)CCC2", "residual activity (%)": 119}

Sample "O=C1NC(=O)C2=C1c1cn(c3ccccc13)CCCc1cc(nc(N3CCCC3)c1)CCCn1cc2c2ccccc21" — what was its residual activity?
114

Sample "O=C1NC(=O)C2=C1c1cn(c3ccccc13)CCCc1ccc(c(N3CCCC3)n1)CCCn1cc2c2ccccc21" — what was its residual activity?
99

Sample "CN(C)c1nc2ccc1CCCn1cc(c3ccccc31)C1=C(C(=O)NC1=O)c1cn(c3ccccc13)CC2" — what was its residual activity?
104

###

molecular target: Mitogen-activated protein kinase 14 (Homo sapiens); test: Inhibition of human SAPK2a at 1 uM relative to control; values are per cent of control
# residual activity per entry
Please state the figure in %; there is no need to write the unit.

The following molecules have reported results that may help.
{"input-smiles": "CN(C)c1cc2cc(n1)CCCn1cc(c3ccccc31)C1=C(C(=O)NC1=O)c1cn(c3ccccc13)CCC2", "property-measured": "residual activity", "unit-label": "%", "measured-number": 92}
{"input-smiles": "O=C1NC(=O)C2=C1c1cn(c3ccccc13)CCCc1ccc(c(N3CCCC3)n1)CCCn1cc2c2ccccc21", "property-measured": "residual activity", "unit-label": "%", "measured-number": 93}
{"input-smiles": "CN(C)c1nc2ccc1CCCn1cc(c3ccccc31)C1=C(C(=O)NC1=O)c1cn(c3ccccc13)CC2", "property-measured": "residual activity", "unit-label": "%", "measured-number": 108}

Here is the next item to consider.
Sample "O=C1NC(=O)C2=C1c1cn(c3ccccc13)CCCc1cc(nc(N3CCCC3)c1)CCCn1cc2c2ccccc21" — what was its residual activity?
92

###

# residual activity per entry
target: MAP kinase-activated protein kinase 5 (Homo sapiens); experiment: Inhibition of human PRAK at 1 uM relative to control; values are per cent of control
Please state the figure in %; there is no need to write the unit.

The following compounds have reported results that may help.
{"input-smiles": "O=C1NC(=O)C2=C1c1cn(c3ccccc13)CCCc1ccc(c(N3CCCC3)n1)CCCn1cc2c2ccccc21", "target-desc": "MAP kinase-activated protein kinase 5 (Homo sapiens)", "unit-label": "%", "residual activity": 102}
{"input-smiles": "O=C1NC(=O)C2=C1c1cn(c3ccccc13)CCCc1cc(nc(N3CCCC3)c1)CCCn1cc2c2ccccc21", "target-desc": "MAP kinase-activated protein kinase 5 (Homo sapiens)", "unit-label": "%", "residual activity": 101}

Sample "CN(C)c1cc2cc(n1)CCCn1cc(c3ccccc31)C1=C(C(=O)NC1=O)c1cn(c3ccccc13)CCC2" — what was its residual activity?
96

Sample "CN(C)c1nc2ccc1CCCn1cc(c3ccccc31)C1=C(C(=O)NC1=O)c1cn(c3ccccc13)CC2" — what was its residual activity?
88
